# Test system: Roseburia intestinalis
# Assay Summary: growth AUC relative to DMSO control (median of replicates) (fraction); higher = more growth (less inhibition), active = hit call of the paper
# Assay Setup: 20 µM; 24 h
Outcome Measure: growth AUC
# respond with the number and nothing more

Example cases with answers are listed next.
Structure | Assay Result
Nc1ccc(Cl)cc1 | 0.963
CCOP(=S)(OCC)OP(=S)(OCC)OCC | 0.984

Then this compound:
Consider `O=S(=O)(c1ccc(Cl)cc1)c1cc(Cl)c(Cl)cc1Cl` . Its measured growth AUC is 0.989

====

Listed below: growth AUC values for each entry.
# Tested on: Clostridium difficile
# Assay Summary: growth AUC relative to DMSO control (median of replicates) (fraction); higher = more growth (less inhibition), active = hit call of the paper
# Assay Setup: 20 µM; 24 h
# respond with the number and nothing more

Compound | growth AUC
COP(=O)(OC)OC(Br)C(Cl)(Cl)Br (configuration not stated) | 0.987
O=NN(CCO)CCO | 1.01
CO/C=C(/C(=O)OC)c1ccccc1Oc1cc(Oc2ccccc2C#N)ncn1 | 0.973
COP(=O)(OC)Oc1ccc(S(C)=O)c(C)c1 (configuration not stated) | 1.01
C#CCN1CC(=O)N(COC(=O)C2C(C=C(C)C)C2(C)C)C1=O (mixture of isomers) | 0.997

Consider `COP(=S)(OC)Oc1ccc([N+](=O)[O-])cc1` . Its measured growth AUC is 1.02

Consider `CCOP(=S)(OCC)Oc1cc(C)nc(C(C)C)n1` . Its measured growth AUC is 1.02
